Recorded values, source patent US20210221891A1.

EC50 of PD-L1- based blockade assay for sdAbs values by entry
system tested: human PD-L1 expressed on CHO-K1 cells (human, UniProt Q9NZQ7 19-290)
Sequence (Q9NZQ7 19-290): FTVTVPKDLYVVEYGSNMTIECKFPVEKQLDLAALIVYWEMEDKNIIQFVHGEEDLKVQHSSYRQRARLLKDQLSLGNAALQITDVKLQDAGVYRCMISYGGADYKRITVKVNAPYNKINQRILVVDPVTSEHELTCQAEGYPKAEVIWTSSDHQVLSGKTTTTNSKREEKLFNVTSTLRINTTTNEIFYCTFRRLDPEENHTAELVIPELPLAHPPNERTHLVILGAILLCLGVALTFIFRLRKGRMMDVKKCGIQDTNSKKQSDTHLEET
assay notes: cell-based or functional assay
attribute measured: EC50 of PD-L1- based blockade assay for sdAbs (nM)

INSERT INTO measurements (binder, reading_unit, observed_measurement) VALUES
  ('AS06730 sdAb (VHH) VHH: QVQLVESGGGLVQAGGSLRLSCAASGRTFITYAIGWFRQAPGKEREFVSAINWSGSMTSYADSVKGRFTISRDNAKNTVYLQMNGLKPEDTAVYYCAAHRGAIAPIAQSVYTNWGQGTQVTVSS', 'nM', 17.2),
  ('AS06791 sdAb (VHH) VHH: QVQLVESGGGLVQAGGSLRLSCAASGRTFITYAIGWFRQAPGKEREFVTAINWSGSMTSYADSVKGRFTISRDNAKNTVYLQINGLKSEDTAVYYCAAHRGAIAPMTQSVYDYWGQGTQVTVSS', 'nM', 36.5),
  ('AS06778 sdAb (VHH) VHH: QVQLVESGGGLVQAGGSLKLSCAASGRTFITYAMGWFRQAPGKERELVAAISWSGSSTYSADSVKGRFTISRDNAKNTVYLQMNSLKPEDTAVYYCAAEVSARTGEHLPKLMGDYWGQGTQVTVSS', 'nM', 20.1),
  ('AS06628 sdAb (VHH) VHH: QVQLVESGGGLVQAGGSLRLSCAASGRTFITYAIGWFRQAPGKEREFVTAINWSGSMTSYADSVKGRFTISRDNNKNMVYLQMNSLKPEDTAVYYCAAHRGAIAPMTQSVYDYWGQGTQVTVSS', 'nM', 24.2);
